Test system: rabbit skeletal myofibrils (approximately 90% fast fibers)
procedure_details: Activation of fast skeletal myofibrils (PUMA coupled-enzyme ATPase assay at pCa25)
Format: biochemical
protocol_conditions: concentration at which the compound increased the enzymatic activity by 40%; calcium at pCa25; PM12 buffer pH 6.8
value_type: Mean AC1.4

Below are worked cases with known answers.
NC(=O)c1ccc(F)c(-c2cnc(NCC3(c4ncccc4Cl)CC(F)(F)C3)nc2)c1
A (A=<1 uM)
CCOC(=O)c1nnc(-c2cnc(NC(C)(C)c3ncccc3Cl)nc2)o1
D (D=>20 uM)
Nc1ncc(-c2cnc(NC[C@]3(c4ncccc4F)C[C@H](F)C3)nc2)[nH]c1=O
B (B=1-10 uM)
O=c1[nH]cc(-c2cnc(NC[C@]3(c4ncccc4F)C[C@H](F)C3)nc2)c(=O)[nH]1
D (D=>20 uM)
CC(C)(Nc1ncc(-c2cnn(CC(N)=O)c2)cn1)c1ncccc1Cl
D (D=>20 uM)

Quick one: Mean AC1.4 for `NC(=O)c1cnc(NC2(c3ncccc3F)CCC2)nc1C(F)(F)F` ?
D (D=>20 uM)

Quick one: Mean AC1.4 for `CC(C)(Nc1ncc(-c2nccc(C(N)=O)n2)cn1)c1ncccc1F` ?
D (D=>20 uM)

Quick one: Mean AC1.4 for `N#Cc1cnc(NC2(c3ncccc3F)CCC2)nc1` ?
D (D=>20 uM)

Quick one: Mean AC1.4 for `CSc1ccccc1C(C)(C)Nc1ncc(-c2cccc(C(N)=O)c2)cn1` ?
A (A=<1 uM)

Quick one: Mean AC1.4 for `CNc1nc(NC[C@]2(c3ncccc3F)C[C@H](F)C2)ncc1-c1ccccc1` ?
D (D=>20 uM)

Quick one: Mean AC1.4 for `O=C(O)c1ccc(O)c(-c2cnc(NC[C@]3(c4ncccc4F)C[C@H](F)C3)nc2)c1` ?
A (A=<1 uM)

###

Tested on: rabbit skeletal myofibrils (approximately 90% fast fibers)
procedure_details: Activation of fast skeletal myofibrils (PUMA coupled-enzyme ATPase assay at pCa25)
Assay type: biochemical
protocol_conditions: concentration at which the compound increased the enzymatic activity by 40%; calcium at pCa25; PM12 buffer pH 6.8
value_type: Mean AC1.4

Below are worked cases with known answers.
CC(C)(Nc1ncc(-c2cnnc(C(N)=O)c2)cn1)c1ncccc1Cl
B (B=1-10 uM)
CC(C)(Nc1ncc(-c2ncc(C(N)=O)o2)cn1)c1ncccc1Cl
D (D=>20 uM)
CC(C)(Nc1ncc(-c2ncc(C(N)=O)s2)cn1)c1cccc(OC(F)F)n1
A (A=<1 uM)
CC(C)(Nc1ncc(-c2ccc3[nH]nc(N)c3c2)cn1)c1ncccc1F
A (A=<1 uM)
CC(C)(Nc1ncc(-n2cc(C(=O)O)cn2)cn1)c1ncccc1Cl
D (D=>20 uM)
Cc1cccnc1C(C)(C)Nc1ncc(-c2cc(C(N)=O)ccc2F)cn1
B (B=1-10 uM)
N#Cc1ccnc(NC2(c3ccc(F)cc3)CCC2)n1
D (D=>20 uM)
COc1ccnc(NC[C@]2(c3ncccc3F)C[C@H](F)C2)n1
D (D=>20 uM)
CC(C)(CNc1ncc(-c2cccc(C(N)=O)c2)cn1)c1ncccc1Cl
A (A=<1 uM)

For the next question, use this compound.
Quick one: Mean AC1.4 for `COc1cc(-c2cnc(NC[C@]3(c4ncccc4F)C[C@H](F)C3)nc2)nc(OC)n1` ?
D (D=>20 uM)

###

Test system: rabbit skeletal myofibrils (approximately 90% fast fibers)
procedure_details: Activation of fast skeletal myofibrils (PUMA coupled-enzyme ATPase assay at pCa25)
Format: biochemical
protocol_conditions: concentration at which the compound increased the enzymatic activity by 40%; calcium at pCa25; PM12 buffer pH 6.8
value_type: Mean AC1.4

Below are worked cases with known answers.
CC(C)(Nc1ncc(-c2nc(C(=O)O)co2)cn1)c1ncccc1Cl
D (D=>20 uM)
Fc1cccnc1C1(CNc2ncc(-c3ncc[nH]3)cn2)CCC1
C (C=10-20 uM)
Fc1ccc(C2(Nc3nccc(C(F)(F)F)n3)CCC2)cc1
C (C=10-20 uM)
NC(=O)c1ccnc(NC2(c3ccc(F)cc3)CCC2)n1
C (C=10-20 uM)

For the next question, use this compound.
Quick one: Mean AC1.4 for `O=C(Nc1ccc(F)cc1)c1cnc(NCC2(c3ncccc3F)CCC2)nc1` ?
D (D=>20 uM)

###

System: rabbit skeletal myofibrils (approximately 90% fast fibers)
procedure_details: Activation of fast skeletal myofibrils (PUMA coupled-enzyme ATPase assay at pCa25)
Format: biochemical
protocol_conditions: concentration at which the compound increased the enzymatic activity by 40%; calcium at pCa25; PM12 buffer pH 6.8
value_type: Mean AC1.4

Below are worked cases with known answers.
O=C(Nc1ccccc1F)c1cnc(NCC2(c3ncccc3F)CCC2)nc1
D (D=>20 uM)
CC(C)(Nc1ncc(-n2cc(C(N)=O)cn2)cn1)c1ncccc1Cl
B (B=1-10 uM)
CC(C)(Nc1ncc(-c2nc(CNC(=O)CN)cs2)cn1)c1ncccc1F
D (D=>20 uM)
CC(C)(Nc1ncc(-c2cc(C(N)=O)no2)cn1)c1ncccc1Cl
B (B=1-10 uM)
NC(=O)c1cccc(-c2cnc(NC[C@]3(c4ncccc4F)C[C@H](F)C3)nc2O)c1
B (B=1-10 uM)

Quick one: Mean AC1.4 for `CSc1cccnc1C(C)(C)Nc1ncc(-c2cccc(C(N)=O)c2)cn1` ?
B (B=1-10 uM)

Quick one: Mean AC1.4 for `CC(=O)NCc1cnn(-c2cnc(NC(C)(C)c3ncccc3Cl)nc2)c1` ?
D (D=>20 uM)

Quick one: Mean AC1.4 for `COc1nc(N(C)C[C@]2(c3ncccc3F)C[C@H](F)C2)ncc1-c1ccccc1` ?
D (D=>20 uM)

Quick one: Mean AC1.4 for `O=C(O)c1cnc(NC2(c3ncccc3F)CCC2)nc1C(F)(F)F` ?
D (D=>20 uM)

###

System: rabbit skeletal myofibrils (approximately 90% fast fibers)
procedure_details: Activation of fast skeletal myofibrils (PUMA coupled-enzyme ATPase assay at pCa25)
Format: biochemical
protocol_conditions: concentration at which the compound increased the enzymatic activity by 40%; calcium at pCa25; PM12 buffer pH 6.8
value_type: Mean AC1.4

CC(C)(Nc1ncc(-c2cnn(CC(=O)O)c2)cn1)c1ncccc1Cl
D (D=>20 uM)
CNC(=O)c1cccc(-c2cnc(NC[C@]3(c4ncccc4F)C[C@H](F)C3)nc2)c1O
B (B=1-10 uM)
Nc1ccc(-c2cnc(NC[C@]3(c4ncccc4F)C[C@H](F)C3)nc2)nn1
B (B=1-10 uM)
COC(=O)c1nc(-c2cnc(NC(C)(C)c3ncccc3Cl)nc2)cn1C
D (D=>20 uM)
CS(=O)(=O)N1CC(NC(=O)c2cccc(-c3cnc(NC[C@]4(c5ncccc5F)C[C@H](F)C4)nc3)c2)C1
B (B=1-10 uM)

Quick one: Mean AC1.4 for `Nc1ncc(F)c(-c2cnc(NC[C@]3(c4ncccc4F)C[C@H](F)C3)nc2)n1` ?
B (B=1-10 uM)

Quick one: Mean AC1.4 for `Fc1ccc(C2(Nc3ncc(Br)cn3)CCC2)cc1` ?
D (D=>20 uM)

Quick one: Mean AC1.4 for `CC(C)(Nc1ncccn1)c1ncccc1Cl` ?
D (D=>20 uM)

Quick one: Mean AC1.4 for `CC(C)(Nc1ncc(-c2cccc(C(N)=O)c2)cn1)c1cccc(OC(F)F)n1` ?
A (A=<1 uM)

Quick one: Mean AC1.4 for `CC(C)(CNC(=O)c1cnc(NCC(C)(C)c2ccc(F)cc2)nc1)c1ccc(F)cc1` ?
D (D=>20 uM)

Quick one: Mean AC1.4 for `CC(C)(C)OC(=O)NCc1cnc(-c2cnc(NCC3(c4ncccc4F)CCC3)nc2)s1` ?
B (B=1-10 uM)

Quick one: Mean AC1.4 for `Oc1ncc(-c2cnc(N3CC4(c5ncccc5F)CC3C4)nc2)cn1` ?
D (D=>20 uM)

Quick one: Mean AC1.4 for `Oc1ncc(-c2cnc(NC[C@]3(c4ncccc4F)C[C@H](F)C3)nc2)cn1` ?
D (D=>20 uM)

Quick one: Mean AC1.4 for `CC(C)(CNc1ncc2c(n1)CCNC2)c1ccc(F)cc1` ?
D (D=>20 uM)

Quick one: Mean AC1.4 for `COc1ncc(-c2cnc(NC[C@]3(c4ncccc4F)C[C@H](F)C3)nc2)c(OC)n1` ?
D (D=>20 uM)

Quick one: Mean AC1.4 for `CC(C)(Nc1ncc(-n2cc(C(N)=O)cn2)cn1)c1ncccc1F` ?
D (D=>20 uM)

Quick one: Mean AC1.4 for `Cc1nc(NC[C@]2(c3ncccc3F)C[C@H](F)C2)ncc1-c1ccc(CC(=O)O)cc1` ?
D (D=>20 uM)

###

System: rabbit skeletal myofibrils (approximately 90% fast fibers)
procedure_details: Activation of fast skeletal myofibrils (PUMA coupled-enzyme ATPase assay at pCa25)
Type: biochemical
protocol_conditions: concentration at which the compound increased the enzymatic activity by 40%; calcium at pCa25; PM12 buffer pH 6.8
value_type: Mean AC1.4

Below are worked cases with known answers.
NC(=O)c1ccc2nc(NC3(c4ncccc4F)CCC3)ncc2c1
D (D=>20 uM)
CC(C)(Nc1ncc(-c2nccs2)cn1)c1ncccc1Cl
B (B=1-10 uM)
CC(C)(Nc1ncc(-c2cn3cc(C(=O)O)ccc3n2)cn1)c1ncccc1Cl
D (D=>20 uM)
COCCNc1nc(NC[C@]2(c3ncccc3F)C[C@H](F)C2)ncc1-c1ccccc1
D (D=>20 uM)

Quick one: Mean AC1.4 for `NC(=O)c1cnc(NC2(c3ccc(F)cc3)CCC2)nc1C(F)(F)F` ?
B (B=1-10 uM)

Reference for the values: patent US11369565B2
